- System: 922993-354-T-J3-PDC complex spheroids, viability, % test/control;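 further: spheroids exposed to the agents for 7 days before readout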
- measurement description: Anticancer human tumor 922993-354-T-J3-PDC patient-derived endometrial carcinoma cell line growth inhibition [CLK]
- condition context: second compound 0.316 µM; first compound 0.0316 µM; hits give low values
So I've got a bunch of compounds here, and I need their viability, T/C values.
The figure you give is taken to be in %; do not add the unit.

Consider the compound COc1c(OCCCN2CCOCC2)ccc2c3n(c(=NC(=O)c4cnc(N)nc4)nc12)CCN3 + CNC(=O)c1ccc(Nc2nc(OC3CCCC3)c3c(-c4ccc5nc(C)oc5c4)c[nH]c3n2)c(OC)c1 and give its measured viability, T/C.
74.4

viability, T/C for CC(=O)O[C@H]1C(=O)[C@@]2(C)[C@H]([C@H](OC(=O)c3ccccc3)[C@]3(O)C[C@H](OC(=O)[C@H](O)[C@@H](NC(=O)c4ccccc4)c4ccccc4)C(C)=C1C3(C)C)[C@]1(OC(C)=O)CO[C@@H]1C[C@@H]2O + CNC(=O)c1ccc(Nc2nc(OC3CCCC3)c3c(-c4ccc5nc(C)oc5c4)c[nH]c3n2)c(OC)c1 ?
60.2

Would you mind telling me what viability, T/C value was observed for COc1cccc2c1C(=O)c1c(O)c3c(c(O)c1C2=O)CC(O)(C(=O)CO)CC3OC1CC(N)C(O)C(C)O1 (stereo not drawn) + CN1CCN(c2cc(C(=O)Nc3cc4cc(-c5cnn(C)c5)ccc4cn3)ccn2)CC1 ?
31
